Recorded pIC50 for the following molecules
# tested_target: LK35.2-hPD-L1 cells / PE-labeled PD-1-Ig (Homo sapiens)
# Construct: expressed in transfected cells; host or cells: LK35.2 mouse B cell line
# method_summary: LK35.2-hPD-L1 cell binding high-content screening assay
# Format: cell-based
# details: cluster symbol; cell line of CBA not given (LK35.2-hPD-L1 or 293T-hPD-L1); read-out: CBA IC50 cluster
pIC50: −log10 of the molar value. Positions of bridges follow the written chain, without caps; N, C: chain ends. Non-standard residues stand in square brackets, D forms with d. Residues, ends and D or L forms follow the SMILES beside them. Bta = N[C@@H](Cc1csc2ccccc12)C(=O)O; NMeNle = CCCC[C@H](NC)C(=O)O; NMeA = CN[C@@H](C)C(=O)O; Orn = NCCC[C@H](N)C(=O)O; Sar = CNCC(=O)O
readout: pIC50

>>> value_reported("CCCC[C@H]1C(=O)N(C)[C@@H](CCCC)C(=O)N[C@@H](CCCNC(=N)N)C(=O)N[C@H](C(=O)NCC(N)=O)CSCC(=O)N[C@@H](Cc2ccc(O)cc2)C(=O)N(C)[C@@H](C)C(=O)N[C@@H](CC(N)=O)C(=O)N2CCC[C@H]2C(=O)N[C@@H](Cc2cnc[nH]2)C(=O)N[C@@H](CC(C)C)C(=O)N2CCC[C@H]2C(=O)N[C@@H](Cc2c[nH]c3ccccc23)C(=O)N[C@@H](CO)C(=O)N[C@@H](Cc2csc3ccccc23)C(=O)N1C [Example 1014] ({CH2CO}-Y[NMeA]NPHLPWS[Bta][NMeNle][NMeNle]RCG-NH2; thioether N-14)")
"8.33 to 9.80"
>>> value_reported("CCCC[C@H]1C(=O)N(C)[C@@H](CCCC)C(=O)N[C@@H](CCCNC(=N)N)C(=O)N[C@H](C(=O)NCC(N)=O)CSCC(=O)N[C@@H](Cc2ccccc2)C(=O)N(C)[C@@H](C)C(=O)N[C@@H](CC(N)=O)C(=O)N2CCC[C@H]2C(=O)N[C@@H](Cc2cnc[nH]2)C(=O)N[C@@H](CC(C)C)C(=O)N(C)CC(=O)N[C@@H](Cc2c[nH]c3ccccc23)C(=O)N[C@@H](CCCN)C(=O)N[C@@H](Cc2c[nH]c3ccccc23)C(=O)N1C [Example 1070] ({CH2CO}-F[NMeA]NPHL[Sar]W[Orn]W[NMeNle][NMeNle]RCG-NH2; thioether N-14)")
"7.14 to 8.32"

###

# tested_target: LK35.2-hPD-L1 cells / PE-labeled PD-1-Ig (Homo sapiens, UniProt Q9NZQ7)
# Construct: expressed in transfected cells; host or cells: LK35.2 mouse B cell line
# Sequence (Q9NZQ7 19-290): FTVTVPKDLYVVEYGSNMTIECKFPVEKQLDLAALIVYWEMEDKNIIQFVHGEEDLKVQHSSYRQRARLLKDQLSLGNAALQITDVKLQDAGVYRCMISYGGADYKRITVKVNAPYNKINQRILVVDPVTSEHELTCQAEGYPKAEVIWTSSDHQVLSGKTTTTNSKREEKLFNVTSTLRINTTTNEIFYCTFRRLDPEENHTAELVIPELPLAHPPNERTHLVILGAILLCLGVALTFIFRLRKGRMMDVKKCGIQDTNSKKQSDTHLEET
# method_summary: LK35.2-hPD-L1 cell binding high-content screening assay
# Format: cell-based
# details: cluster symbol; cell line of CBA not given (LK35.2-hPD-L1 or 293T-hPD-L1); read-out: CBA IC50 cluster
# Method: LK35.2-hPD-L1 Cell Binding High-Content Screening Assay. Phycoerythrin (PE) was covalently linked to the Ig epitope tag of human PD-1-Ig and fluorescently-labeled PD-1-Ig was used for binding studies with a mouse B cell line (LK35.2) stably over-expressing human PD-L1 (LK35.2-hPD-L1). Briefly, 3×10^3 LK35.2-hPD-L1 cells were seeded into 384 well plates in 20 ul of RPMI supplemented with 10% fetal calf serum and cultured overnight. […]
Positions of bridges follow the written chain, without caps; N, C: chain ends. Non-standard residues stand in square brackets, D forms with d. Residues, ends and D or L forms follow the SMILES beside them. Trp(5-Cl) = N[C@@H](Cc1c[nH]c2ccc(Cl)cc12)C(=O)O; Phe(3-OMe) = COc1cccc(C[C@H](N)C(=O)O)c1; Hyp = O=C(O)[C@@H]1C[C@@H](O)CN1; NMeF = CN[C@@H](Cc1ccccc1)C(=O)O; NMeNle = CCCC[C@H](NC)C(=O)O; NMeA = CN[C@@H](C)C(=O)O; Sar = CNCC(=O)O
readout: IC50

>>> value_reported("CCCC[C@H]1C(=O)N(C)CC(=O)N[C@@H](CC(=O)O)C(=O)N[C@@H](C(C)C)C(=O)N(C)[C@@H](Cc2ccccc2)C(=O)N[C@@H](Cc2c[nH]c3ccc(Cl)cc23)C(=O)N(C)CC(=O)N[C@@H](Cc2c[nH]c3ccccc23)C(=O)N[C@@H](Cc2ccc(O)cc2)C(=O)N[C@@H](CC(C)C)C(=O)N[C@H](C(=O)NCC(N)=O)CSCC(=O)N[C@@H](Cc2ccccc2)C(=O)N(C)[C@@H](Cc2ccccc2)C(=O)N1C [Example 3109] ({CH2CO}-F[NMeF][NMeNle][Sar]DV[NMeF][Trp(5-Cl)][Sar]WYLCG-NH2; thioether N-13)")
"4.78 to 72.9 nM"
>>> value_reported("CCCC[C@H]1C(=O)N(C)CC(=O)N[C@@H](CC(=O)O)C(=O)N[C@@H](C(C)C)C(=O)N(C)[C@@H](Cc2ccccc2)C(=O)N[C@@H](Cc2ccc(O)cc2)C(=O)N(C)CC(=O)N[C@@H](Cc2c[nH]c3ccccc23)C(=O)N[C@@H](Cc2ccc(O)cc2)C(=O)N[C@@H](CC(C)C)C(=O)N[C@H](C(=O)NCC(N)=O)CSCC(=O)N[C@@H](Cc2cccc(OC)c2)C(=O)N(C)[C@@H](Cc2ccccc2)C(=O)N1C [Example 3095] ({CH2CO}-[Phe(3-OMe)][NMeF][NMeNle][Sar]DV[NMeF]Y[Sar]WYLCG-NH2; thioether N-13)")
"4.78 to 72.9 nM"
>>> value_reported("CCCC[C@H]1C(=O)N(C)[C@@H](CCCC)C(=O)N[C@@H](CCCNC(=N)N)C(=O)N[C@H](C(=O)NCC(N)=O)CSCC(=O)N[C@@H](Cc2ccc(O)cc2)C(=O)N(C)[C@@H](C)C(=O)N[C@@H](CC(N)=O)C(=O)N2CCC[C@H]2C(=O)N[C@@H](Cc2cnc[nH]2)C(=O)N[C@@H](CCC(=O)O)C(=O)N2CCC[C@H]2C(=O)N[C@@H](Cc2c[nH]c3ccccc23)C(=O)N[C@@H](CO)C(=O)N[C@@H](Cc2c[nH]c3ccccc23)C(=O)N1C [Example 1090] ({CH2CO}-Y[NMeA]NPHEPWSW[NMeNle][NMeNle]RCG-NH2; thioether N-14)")
"0.158 to 4.71 nM"
>>> value_reported("CCCC[C@H]1C(=O)N(C)[C@@H](CCCC)C(=O)N[C@@H](CCCNC(=N)N)C(=O)N[C@H](C(=O)NCC(N)=O)CSCC(=O)N[C@@H](Cc2ccccc2)C(=O)N(C)[C@@H](C)C(=O)N[C@@H](CC(N)=O)C(=O)N2CCC[C@H]2C(=O)N[C@@H](Cc2cnc[nH]2)C(=O)N[C@@H](CC(C)C)C(=O)N2C[C@H](O)C[C@H]2C(=O)N[C@@H](Cc2c[nH]c3ccccc23)C(=O)N[C@@H](CO)C(=O)N[C@@H](Cc2c[nH]c3ccccc23)C(=O)N1C [Example 1087] ({CH2CO}-F[NMeA]NPHL[Hyp]WSW[NMeNle][NMeNle]RCG-NH2; thioether N-14)")
"0.158 to 4.71 nM"

###

Reported IC50 values for the following compounds.
# tested_target: Human PD-L1/PD-1 (Homo sapiens, UniProt Q9NZQ7)
# Construct: made in house; host or cells: HEK293T
# Sequence (Q9NZQ7 with tags, fused parts or gaps): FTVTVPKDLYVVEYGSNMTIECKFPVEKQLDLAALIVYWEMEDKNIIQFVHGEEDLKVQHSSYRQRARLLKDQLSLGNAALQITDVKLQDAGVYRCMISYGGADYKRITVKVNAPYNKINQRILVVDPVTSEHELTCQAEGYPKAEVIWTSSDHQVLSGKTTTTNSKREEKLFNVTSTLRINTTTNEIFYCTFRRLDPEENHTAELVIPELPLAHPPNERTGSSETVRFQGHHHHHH
# method_summary: HTRF PD-1-Ig/PD-L1-His binding assay (human PD-L1)
# details: value given instead of cluster; read-out: HTRF IC50 value
Positions of bridges follow the written chain, without caps; N, C: chain ends. Non-standard residues stand in square brackets, D forms with d. Residues, ends and D or L forms follow the SMILES beside them. Phe(3-CF3) = N[C@@H](Cc1cccc(C(F)(F)F)c1)C(=O)O; Hyp = O=C(O)[C@@H]1C[C@@H](O)CN1; NMeF = CN[C@@H](Cc1ccccc1)C(=O)O; NMeNle = CCCC[C@H](NC)C(=O)O; NMeA = CN[C@@H](C)C(=O)O; dThz = O=C(O)[C@H]1CSCN1; Sar = CNCC(=O)O
readout: IC50 (nM)

>>> value_reported("CCCC[C@H]1C(=O)N(C)CC(=O)N[C@@H](CC(=O)O)C(=O)N[C@@H](C(C)C)C(=O)N(C)[C@@H](Cc2ccccc2)C(=O)N[C@@H](Cc2ccc(O)cc2)C(=O)N(C)CC(=O)N[C@@H](Cc2cccc(C(F)(F)F)c2)C(=O)N[C@@H](Cc2ccc(O)cc2)C(=O)N[C@@H](CC(C)C)C(=O)N[C@H](C(=O)NCC(N)=O)CSCC(=O)N[C@@H](Cc2ccccc2)C(=O)N(C)[C@@H](Cc2ccccc2)C(=O)N1C [Example 3550] ({CH2CO}-F[NMeF][NMeNle][Sar]DV[NMeF]Y[Sar][Phe(3-CF3)]YLCG-NH2; thioether N-13)")
40.9
>>> value_reported("CCCC[C@H]1C(=O)N(C)CC(=O)N[C@@H](CC(=O)O)C(=O)N[C@@H](C(C)C)C(=O)N(C)[C@@H](Cc2ccccc2)C(=O)N[C@@H](Cc2ccc(O)cc2)C(=O)N2CSC[C@@H]2C(=O)N[C@@H](Cc2c[nH]c3ccccc23)C(=O)N[C@@H](Cc2ccc(O)cc2)C(=O)N[C@@H](CC(C)C)C(=O)N[C@H](C(=O)NCC(N)=O)CSCC(=O)N[C@@H](Cc2ccccc2)C(=O)N(C)[C@@H](Cc2ccccc2)C(=O)N1C [Example 3601] ({CH2CO}-F[NMeF][NMeNle][Sar]DV[NMeF]Y[dThz]WYLCG-NH2; thioether N-13)")
6.91
>>> value_reported("CCCC[C@H]1C(=O)N(C)[C@@H](CCCC)C(=O)N[C@@H](CC(C)C)C(=O)N[C@H](C(=O)NCC(N)=O)CSCC(=O)N[C@@H](Cc2ccccc2)C(=O)N(C)[C@@H](C)C(=O)N[C@@H](CC(N)=O)C(=O)N2CCC[C@H]2C(=O)N[C@@H](Cc2cnc[nH]2)C(=O)N[C@@H](CC(C)C)C(=O)N(C)CC(=O)N[C@@H](Cc2c[nH]c3ccccc23)C(=O)N[C@@H](CO)C(=O)N[C@@H](Cc2c[nH]c3ccccc23)C(=O)N1C [Example 5017] ({CH2CO}-F[NMeA]NPHL[Sar]WSW[NMeNle][NMeNle]LCG-NH2; thioether N-14)")
11.3
>>> value_reported("CCCC[C@H]1C(=O)N(C)[C@@H](CCCC)C(=O)N[C@@H](CO)C(=O)N[C@H](C(=O)NCC(N)=O)CSCC(=O)N[C@@H](Cc2ccc(O)cc2)C(=O)N(C)[C@@H](C)C(=O)N[C@@H](CC(=O)O)C(=O)N2CCC[C@H]2C(=O)N[C@@H](CO)C(=O)N[C@@H](CO)C(=O)N2C[C@H](O)C[C@H]2C(=O)N[C@@H](Cc2c[nH]c3ccccc23)C(=O)N[C@@H](CO)C(=O)N[C@@H](Cc2c[nH]c3ccccc23)C(=O)N1C [Example 5117] ({CH2CO}-Y[NMeA]DPSS[Hyp]WSW[NMeNle][NMeNle]SCG-NH2; thioether N-14)")
5.33

These data points were gathered from patent US9850283B2.
